# measurement-description: Acute toxicity in ip dosed albino CFW mouse assessed as mortality measured over 48 hrs
# Format: organism-based
# condition-details: albino CFW, in vivo
quantity: LD50 at 48 h (µmol/kg)
Reply numerically in µmol/kg, unit not repeated.

Completed entries (count: 4):
molecule	LD50 at 48 h, µmol/kg
CNCCC12CC3CC(CC(C3)C1Br)C2.O=C(O)/C=C\C(=O)O (stereo not given)	400
Cl.c1ccc(CCNC2CC3CC4CC(C3)C2C4)cc1 (stereo in doubt; 12)	300
CN1CCN(CC23CC4CC(CC(C4)C2O)C3)CC1.Cl (stereo not given)	900
CN(C)CC12CC3CC(CC(C3)C1Br)C2.Cl (stereo not given)	500

Moving on to the next molecule.
Ask | I have this molecule here, CN(C)CC1(O)CC2CC3CC(C2)C1C3.Cl (stereo not given) , and I need its recorded LD50 at 48 h.
Reply | 1200
